Assign IC50 to each entry below.
assay: Antiproliferative activity against human PC3 cells assessed as inhibition of cell proliferation incubated for 18 hrs followed by MTT addition for 4 hrs by MTT assay; type: functional, cell-based; settings: PC-3
Give bare numbers, in µM.

Observe how each entry below is paired with its result.
CCCCCCCCCCOP(=O)(O)OCCSC(=S)N1CCCCCC1 : 32.9
CCCCCCCCCCCCCCCCOP(=O)(O)OCCSC(=S)N1CCCC1 : 65.7
CCCCCCCCCCCCCCCCOP(=O)(O)OCCSC(=S)N1CCN(C)CC1 : 95.2
CCCCCCCCCCCCCCCCOP(=O)(O)OCCSC(=S)N1CCCCCC1 : 32.1
CCCCCCCCCCCCCCCCOP(=O)(O)OCCSC(=S)N1CCCCC1 : 34.3

// each compound listed below needs its IC50
1. CCCCCCCCOP(=O)(O)OCCSC(=S)N1CCCCCC1
2. CCCCCCCCCCOP(=O)(O)OCCSC(=S)N1CCN(C)CC1
3. CCCCCCCCCCCCCCCCOP(=O)([O-])OCC[N+](C)(C)C

Reply:
[56.8, 80, 19.9]

Ask: Recorded IC50 of `CCCCCCCCCCOP(=O)(O)OCCSC(=S)N1CCCC1` , please.
Reply: 56.1

---

assay: Antiproliferative activity against human DU145 cells assessed as inhibition of cell proliferation incubated for 18 hrs followed by MTT addition for 4 hrs by MTT assay; type: functional, cell-based; settings: DU-145
measure: IC50 (µM)
Numbers only, in µM.

Completed entries (count: 4):
CCCCCCCCCCCCCCCCOP(=O)(O)OCCSC(=S)N1CCCCCC1 : 17.6
CCCCCCOP(=O)(O)OCCSC(=S)N1CCCCCC1 : 77.4
CCCCCCCCCCCCCCCCOP(=O)(O)OCCSC(=S)N1CCN(C)CC1 : 49.3
CCCCCCCCOP(=O)(O)OCCSC(=S)N1CCCCCC1 : 59.1

Then this compound:
Ask: Please give the measured IC50 for this compound: `CCCCCCCCOP(=O)(O)OCCSC(=S)N1CCCC1`
Reply: 47.1
